target: T1, cyno FcRn/b2M (cyno, UniProt Q8SPV9 24-297; Q8SPW0 21-119, biotinylated); test: SPR pH 6.0;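 note: surface plasmon resonance kinetics at 25 °C, diluted periplasmic extracts injected over immobilized ligand surfaces, 120 s association then 600–3600 s dissociation, running buffer containing 150 mM NaCl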
T1 construct: bought recombinant biotinylated protein (Immunitrack ITF05 or ACRO FCM-C82W5); also called cFcRn; cFcRn/cb2M
T1 sequence (Q8SPV9 24-297 limits assumed, chain 1 of 2): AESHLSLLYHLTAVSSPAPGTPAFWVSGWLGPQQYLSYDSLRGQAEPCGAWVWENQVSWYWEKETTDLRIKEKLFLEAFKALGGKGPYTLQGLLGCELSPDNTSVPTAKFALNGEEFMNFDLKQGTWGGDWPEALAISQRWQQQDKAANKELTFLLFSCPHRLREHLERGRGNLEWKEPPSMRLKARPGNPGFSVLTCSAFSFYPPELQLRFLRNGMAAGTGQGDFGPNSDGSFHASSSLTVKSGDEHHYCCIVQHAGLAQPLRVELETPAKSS
T1 sequence (Q8SPW0 21-119 limits assumed, chain 2 of 2): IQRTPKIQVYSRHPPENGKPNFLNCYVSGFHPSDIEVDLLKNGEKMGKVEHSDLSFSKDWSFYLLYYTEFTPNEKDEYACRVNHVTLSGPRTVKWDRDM
PARAMETER MEASURED: koff (s⁻¹)

INSERT INTO assay_data (binder, unit_of_measurement, assay_result) VALUES
  ('T0263018B11 T57R (VHH, name in Kabat numbering, FLAG3-His6 tagged) VHH: EVQLVESGGGVVQPGGSLRLSCAASGFTFSSYAMYWVRQAPGKGLEWVSAISSGGGSRDYADSVKGRFTISRDNSKNTLYLQMNSLRPEDTALYYCAADTLYTSLTWYSYWGQGTLVTVSS', 's⁻¹', 0.00071),
  ('T0263018B11 G26D (VHH, name in Kabat numbering, FLAG3-His6 tagged) VHH: EVQLVESGGGVVQPGGSLRLSCAASDFTFSSYAMYWVRQAPGKGLEWVSAISSGGGSTDYADSVKGRFTISRDNSKNTLYLQMNSLRPEDTALYYCAADTLYTSLTWYSYWGQGTLVTVSS', 's⁻¹', 0.00095),
  ('T0263018B11 S30K (VHH, name in Kabat numbering, FLAG3-His6 tagged) VHH: EVQLVESGGGVVQPGGSLRLSCAASGFTFKSYAMYWVRQAPGKGLEWVSAISSGGGSTDYADSVKGRFTISRDNSKNTLYLQMNSLRPEDTALYYCAADTLYTSLTWYSYWGQGTLVTVSS', 's⁻¹', 0.003);

1 = T0263018B11 T96G (VHH, name in Kabat numbering, FLAG3-His6 tagged) VHH: EVQLVESGGGVVQPGGSLRLSCAASGFTFSSYAMYWVRQAPGKGLEWVSAISSGGGSTDYADSVKGRFTISRDNSKNTLYLQMNSLRPEDTALYYCAADGLYTSLTWYSYWGQGTLVTVSS
2 = T0263018B11 F29S (VHH, name in Kabat numbering, FLAG3-His6 tagged) VHH: EVQLVESGGGVVQPGGSLRLSCAASGFTSSSYAMYWVRQAPGKGLEWVSAISSGGGSTDYADSVKGRFTISRDNSKNTLYLQMNSLRPEDTALYYCAADTLYTSLTWYSYWGQGTLVTVSS
3 = T0263018B11 F29P (VHH, name in Kabat numbering, FLAG3-His6 tagged) VHH: EVQLVESGGGVVQPGGSLRLSCAASGFTPSSYAMYWVRQAPGKGLEWVSAISSGGGSTDYADSVKGRFTISRDNSKNTLYLQMNSLRPEDTALYYCAADTLYTSLTWYSYWGQGTLVTVSS
In: Order the records so the highest koff appears first and the lowest last. I'd appreciate it if you listed the labels in the requested order.
Out: 1, 3, 2
(1: 0.0084 s⁻¹, 3: 0.0019 s⁻¹, 2: 0.0013 s⁻¹)

a = T0263018B11 A94S (VHH, name in Kabat numbering, FLAG3-His6 tagged) VHH: EVQLVESGGGVVQPGGSLRLSCAASGFTFSSYAMYWVRQAPGKGLEWVSAISSGGGSTDYADSVKGRFTISRDNSKNTLYLQMNSLRPEDTALYYCASDTLYTSLTWYSYWGQGTLVTVSS
b = T0263018B11 S30E (VHH, name in Kabat numbering, FLAG3-His6 tagged) VHH: EVQLVESGGGVVQPGGSLRLSCAASGFTFESYAMYWVRQAPGKGLEWVSAISSGGGSTDYADSVKGRFTISRDNSKNTLYLQMNSLRPEDTALYYCAADTLYTSLTWYSYWGQGTLVTVSS
In: Quick check, higher koff between a and b ? Your answer should be the label of the entry you select.
Out: b

A = T0263018B11 D58V (VHH, name in Kabat numbering, FLAG3-His6 tagged) VHH: EVQLVESGGGVVQPGGSLRLSCAASGFTFSSYAMYWVRQAPGKGLEWVSAISSGGGSTVYADSVKGRFTISRDNSKNTLYLQMNSLRPEDTALYYCAADTLYTSLTWYSYWGQGTLVTVSS
B = T0263018B11 S100A (VHH, name in Kabat numbering, FLAG3-His6 tagged) VHH: EVQLVESGGGVVQPGGSLRLSCAASGFTFSSYAMYWVRQAPGKGLEWVSAISSGGGSTDYADSVKGRFTISRDNSKNTLYLQMNSLRPEDTALYYCAADTLYTALTWYSYWGQGTLVTVSS
C = T0263018B11 T57N (VHH, name in Kabat numbering, FLAG3-His6 tagged) VHH: EVQLVESGGGVVQPGGSLRLSCAASGFTFSSYAMYWVRQAPGKGLEWVSAISSGGGSNDYADSVKGRFTISRDNSKNTLYLQMNSLRPEDTALYYCAADTLYTSLTWYSYWGQGTLVTVSS
In: Order the records so the highest koff appears first and the lowest last. I'd appreciate it if you listed the labels in the requested order.
Out: A, C, B

1 = T0263018B11 S101Q (VHH, name in Kabat numbering, FLAG3-His6 tagged) VHH: EVQLVESGGGVVQPGGSLRLSCAASGFTFSSYAMYWVRQAPGKGLEWVSAISSGGGSTDYADSVKGRFTISRDNSKNTLYLQMNSLRPEDTALYYCAADTLYTSLTWYQYWGQGTLVTVSS
2 = T0263018B11 D58A (VHH, name in Kabat numbering, FLAG3-His6 tagged) VHH: EVQLVESGGGVVQPGGSLRLSCAASGFTFSSYAMYWVRQAPGKGLEWVSAISSGGGSTAYADSVKGRFTISRDNSKNTLYLQMNSLRPEDTALYYCAADTLYTSLTWYSYWGQGTLVTVSS
In: Quick check, higher koff between 1 and 2 ? Your answer should be the label of the entry you select.
Out: 2
(2: 0.0026 s⁻¹, 1: 0.00038 s⁻¹)

FYI, the data here is from patent US20240132624A1.
